- Tested on: mouse L1210 leukemia
- experiment-notes: antitumor activity against mouse L1210 leukemia, life prolongation rate
- Assay type: in vivo
- conditions-used: dose 1 mg/Kg, once a day for five days starting 24 hours after tumor cell injection; control survival day = 100%
I would appreciate it if you labelled entries 1 (yes) when Life Prolongation Rate is 200% or higher, otherwise 0 (no).

molecule | category-label
HBW-20(A): NCS-apoprotein and adriamycin bound together, molar ratio 1:1 (conjugate, UniProt P0A3R9 35-147, looked up, noncovalent complex with adriamycin, 1:1) Neocarzinostatin: AAPTATVTPSSGLSDGTVVKVAGAGLQAGTAYDVGQCAWVDTGVLACNPADFSSVTADANGSASTSLTVRRSFEGFLFDGTRWGTVDCTTAACQVGLSDAAGNGPEGVAISFN | 1 (yes)
HBW-10(A): NCS-apoprotein and daunomycin bound through hydrogen bond and/or hydrophobic bond, molar ratio 1:1 (conjugate, UniProt P0A3R9 35-147, looked up, noncovalent complex with daunomycin, 1:1) Neocarzinostatin: AAPTATVTPSSGLSDGTVVKVAGAGLQAGTAYDVGQCAWVDTGVLACNPADFSSVTADANGSASTSLTVRRSFEGFLFDGTRWGTVDCTTAACQVGLSDAAGNGPEGVAISFN | 1 (yes)

Asked: Quick check, Life Prolongation Rate >= 200%? HBW-18(A): NCS-apoprotein and cosmomycin A bound together, molar ratio 1:1 (conjugate, UniProt P0A3R9 35-147, looked up, complex with cosmomycin A, 1:1) Neocarzinostatin: AAPTATVTPSSGLSDGTVVKVAGAGLQAGTAYDVGQCAWVDTGVLACNPADFSSVTADANGSASTSLTVRRSFEGFLFDGTRWGTVDCTTAACQVGLSDAAGNGPEGVAISFN
Given back: 0 (no)

Asked: Quick check, Life Prolongation Rate >= 200%? HBW-22(A): NCS-apoprotein and γ-rhodomycin Y bound together, molar ratio 1:1 (conjugate, UniProt P0A3R9 35-147, looked up, γ-rhodomycin Y conjugate, 1:1) Neocarzinostatin: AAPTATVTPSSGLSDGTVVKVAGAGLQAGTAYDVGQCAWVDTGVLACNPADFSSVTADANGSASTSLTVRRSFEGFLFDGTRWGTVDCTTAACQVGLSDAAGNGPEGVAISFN
Given back: 0 (no)

Asked: Quick check, Life Prolongation Rate >= 200%? HBW-18(B): NCS-apoprotein and cosmomycin A bound together, molar ratio 1:5 (conjugate, UniProt P0A3R9 35-147, looked up, complex with cosmomycin A, 1:5) Neocarzinostatin: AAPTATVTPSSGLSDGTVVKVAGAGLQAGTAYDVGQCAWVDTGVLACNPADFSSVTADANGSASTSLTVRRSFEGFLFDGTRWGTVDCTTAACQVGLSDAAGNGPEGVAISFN
Given back: 0 (no)

This collection of values is drawn from patent US4642335A.
